# STUDY TARGET: Glutamate NMDA receptor
# ASSAY SUMMARY: Inhibition against NMDA receptor by displacement of [3H]TCP binding from rat cortical membranes
# Assay type: cell membranes, Membrane
REPORTED PROPERTY: IC50 (µM)
Give just the numeric value; µM need not be written.

Worked cases, answers included:
COMPOUND: Cc1ccsc1C(Cc1ccccc1N)N(C)C (stereo not given)
QUANTITATIVE RESULT: 0.37
--
COMPOUND: CNC(Cc1ccccc1N)c1ccc(C)s1 (stereo not given)
QUANTITATIVE RESULT: 5.2
--
COMPOUND: CNC(Cc1ccc(Cl)cc1N)c1sccc1C.Cl (stereo not given)
QUANTITATIVE RESULT: 18
--
COMPOUND: Cc1ccsc1C(Cc1ccccc1N(C)C)N(C)C (stereo not given)
QUANTITATIVE RESULT: 0.33
--
COMPOUND: CNC(Cc1ccccc1N)c1sccc1C.Cl (single isomer, unassigned; (-))
QUANTITATIVE RESULT: 57

Report IC50 for CNC(Cc1cc(Cl)ccc1N)c1sccc1C (stereo not given) please.
0.025

Suppose we examine the compound CCCNC(Cc1ccccc1N)c1sccc1C.Cl (stereo not given) ; what IC50 value has been reported?
0.13

Given the compound CNC(Cc1ccccc1N)c1sccc1C.Cl (stereo in doubt; (+)3a) , what is its reported IC50?
0.18

Need IC50, item CNc1ccccc1CC(NC)c1sccc1C.Cl (stereo not given)
3.8

---

Listed next: entries and their corresponding ED50.
# System: Mus musculus
# ASSAY SUMMARY: Effective dose required for 50% inhibition of clonic seizures in mice induced by racemic NMDLA when administered intraperitoneally
# Type: functional
# RECORDED CONDITIONS: ip

COMPOUND: Cc1ccsc1C(N)Cc1ccccc1N.Cl (centres undefined)
REPORTED PROPERTY: ED50
RESULT: 19 mg/kg

Find the recorded ED50 belonging to Cc1ccsc1C(Cc1ccccc1N)N(C)C (centres undefined) and report it.
> 60 mg/kg

Given the entry C[C@]12N[C@H](Cc3ccccc31)c1ccccc12 , report its measured ED50.
0.38 mg/kg

Please look up its ED50: CNC(Cc1cc(Cl)ccc1N)c1sccc1C (centres undefined)
≥ 30 mg/kg

Look at this compound and give its reported ED50. CNc1ccccc1CC(c1sccc1C)N(C)C (centres undefined)
> 60 mg/kg

---

# STUDY TARGET: Glutamate NMDA receptor
# ASSAY SUMMARY: Inhibition against NMDA receptor by displacement of [3H]TCP binding from rat cortical membranes
REPORTED PROPERTY: IC50 (nM)
Quick note: give the figure in nM, leave out the unit.

MOLECULE: CNC(Cc1cc(Br)ccc1N)c1sccc1C (stereo unspecified)
STUDY TARGET: Glutamate NMDA receptor
IC50, nM: 45
--
MOLECULE: Cc1ccsc1C(N)Cc1ccccc1N.Cl (stereo unspecified)
STUDY TARGET: Glutamate NMDA receptor
IC50, nM: 4000
--
MOLECULE: CCNC(Cc1ccccc1N)c1sccc1C.Cl (stereo unspecified)
STUDY TARGET: Glutamate NMDA receptor
IC50, nM: 43

# input for lookup
Query: IC50; subject: CNC(Cc1ccccc1N)c1sccc1C.Cl (stereo in doubt; 3a)
350

---

Catalogue of molecules with associated ED50
# System: Mus musculus
# ASSAY SUMMARY: Effective dose required for 50% inhibition of clonic seizures in mice induced by racemic NMDLA when administered intraperitoneally
# Type: functional
# RECORDED CONDITIONS: ip

Param item = CCNC(Cc1ccccc1N)c1sccc1C.Cl (centres undefined) ; retrieve measured ED50.
6.4 mg/kg

// returns reported ED50 for input CNC(Cc1ccccc1N)c1ccc(C)s1 (centres undefined)
> 60 mg/kg

---

Readings of ED50 for the listed compounds
# System: Mus musculus
# ASSAY SUMMARY: Effective dose required for 50% inhibition of clonic seizures in mice induced by racemic NMDLA when administered intraperitoneally
# Type: functional
# RECORDED CONDITIONS: ip

Query (compound): Cc1ccsc1C(Cc1ccccc1N(C)C)N(C)C (configuration not stated) ; field requested: ED50
> 60 mg/kg

# input compound: CNC(Cc1ccccc1N)c1cccs1.Cl (configuration not stated) ; wanted: its ED50
> 60 mg/kg

Entry CNC(Cc1ccc(Cl)cc1N)c1sccc1C.Cl (configuration not stated) has what ED50?
≥ 60 mg/kg

Report ED50 for CCCNC(Cc1ccccc1N)c1sccc1C.Cl (configuration not stated) please.
14.1 mg/kg

Form field: reported ED50 of CNc1ccccc1CC(NC)c1sccc1C.Cl (configuration not stated)
> 60 mg/kg

What value of ED50 has been reported for the following compound? CNC(Cc1cc(Br)ccc1N)c1sccc1C (configuration not stated)
> 5 mg/kg

# input compound: CNC(Cc1ccccc1N)c1sccc1C.Cl (stereo in doubt; 3a) ; wanted: its ED50
27.8 mg/kg
